# IC50 per entry
- TARGET: UniProtKB P07333
- Sequence (P07333 20-972): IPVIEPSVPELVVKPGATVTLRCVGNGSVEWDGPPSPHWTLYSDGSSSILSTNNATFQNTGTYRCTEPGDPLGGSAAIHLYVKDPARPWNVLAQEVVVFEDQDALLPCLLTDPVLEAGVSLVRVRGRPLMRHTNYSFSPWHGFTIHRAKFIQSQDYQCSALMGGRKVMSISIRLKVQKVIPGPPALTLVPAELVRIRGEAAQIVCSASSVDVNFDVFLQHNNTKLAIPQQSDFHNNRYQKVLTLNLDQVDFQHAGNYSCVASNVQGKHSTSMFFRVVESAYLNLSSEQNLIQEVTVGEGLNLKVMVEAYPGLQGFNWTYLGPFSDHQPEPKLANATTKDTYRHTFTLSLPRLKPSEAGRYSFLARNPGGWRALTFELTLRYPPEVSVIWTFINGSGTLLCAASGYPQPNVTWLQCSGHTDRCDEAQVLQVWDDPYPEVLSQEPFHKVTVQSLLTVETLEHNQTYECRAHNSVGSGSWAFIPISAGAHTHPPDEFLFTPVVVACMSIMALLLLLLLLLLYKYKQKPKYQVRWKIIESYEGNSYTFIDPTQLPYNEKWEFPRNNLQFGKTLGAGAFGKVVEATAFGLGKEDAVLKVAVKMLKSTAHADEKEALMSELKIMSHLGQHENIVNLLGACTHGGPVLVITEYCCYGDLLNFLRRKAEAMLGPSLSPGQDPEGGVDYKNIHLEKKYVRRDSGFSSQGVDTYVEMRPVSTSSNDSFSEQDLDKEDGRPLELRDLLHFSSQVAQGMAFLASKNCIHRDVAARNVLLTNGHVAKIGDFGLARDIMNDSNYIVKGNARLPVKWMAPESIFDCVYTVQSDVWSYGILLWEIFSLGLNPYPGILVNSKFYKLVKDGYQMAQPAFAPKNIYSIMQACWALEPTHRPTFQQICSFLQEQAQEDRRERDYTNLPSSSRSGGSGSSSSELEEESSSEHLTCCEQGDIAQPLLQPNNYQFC
- TEST DETAILS: SelectScreen Z'-LYTE kinase assay, Assay 336 for CSF-1R (FMS)
- Type: biochemical
- DETAILS: Z'-LYTE activity assay, 500 μM ATP (Km app); read-out: CSF-1R Enzyme IC50
MEASUREMENT KIND: IC50

                                   compound  measurement_kind          result
0  Cc1cc(OCCCN2[C@H](C)CCC[C@@H]2C)c2oc3cc(Oc4ccc(CCC(=O)NC5CCCC5)nc4)ccc3c(=O)c2c1 [Example 64]              IC50        < 100 nM
1  COc1ccc(COc2ccc(Oc3ccc4c(=O)c5cc(C)cc(OCCN(C)C)c5oc4c3)cn2)cc1 [Example 10]              IC50        < 100 nM
2  Cc1cc(OCCN(C)C)c2oc3cc(Oc4ccc(CCNC(=O)N5CCCC5)nc4)ccc3c(=O)c2c1 [Example 27]              IC50        < 100 nM
3  Cc1cc(OCCN(C)C)c2oc3cc(Oc4ccc(NCC(=O)NC5CCCC5)nc4)ccc3c(=O)c2c1 [Example 25]              IC50        < 100 nM
4  Cc1cc(OCCCCN(C)C)c2oc3cc(Oc4ccccc4)ccc3c(=O)c2c1 [Example 34]              IC50  100 to 1000 nM
5  Cc1cc(OCCN2CCN(CC(F)(F)F)CC2)c2oc3cc(Oc4ccc(CCC(=O)NC5CCCC5)nc4)ccc3c(=O)c2c1 [Example 59]              IC50        < 100 nM
6  CNCCOc1cc(C)cc2c(=O)c3ccc(Oc4ccc(CCC(=O)NC5CCCC5)nc4)cc3oc12 [Example 29]              IC50        < 100 nM
7  Cc1cc(OCCCN2CCOCC2)c2oc3cc(Oc4ccccc4)ccc3c(=O)c2c1 [Example 33]              IC50  100 to 1000 nM
8  Cc1cc(OC2CCCN(C)C2)c2oc3cc(Oc4ccc(CCC(=O)NC5CCCC5)nc4)ccc3c(=O)c2c1 (stereo not drawn) [Example 60]              IC50        < 100 nM
